# Test system: BXPC-3
# Measurement Protocol: Ratio of hydroxychloroquine IC50 to compound IC50 for human BxPC3 cells
# Assay type: functional
Assay Readout: Ratio IC50
Give bare numbers.

1. CN(CCNCc1cn(-c2ccccc2)nn1)CCNc1ccnc2cc(Cl)ccc12; 2.9
2. CN(CCNCc1cn(-c2cccc(Cl)c2)nn1)CCNc1ccnc2cc(Cl)ccc12; 4.7
3. CN(CCNCc1cn(Cc2ccccc2)nn1)CCNc1ccnc2cc(Cl)ccc12; 3.1
4. CN(CCNCc1cn(-c2ccnc3cc(Cl)ccc23)nn1)CCNc1ccnc2cc(Cl)ccc12; 3.9
5. CN(CCNCc1cn(-c2ccc(F)cc2)nn1)CCNc1ccnc2cc(Cl)ccc12; 2.8
6. CN(CCNCc1cn(-c2ccc(Cl)cc2)nn1)CCNc1ccnc2cc(Cl)ccc12; 5.2

Batch lookup, Ratio IC50 per entry.
1. Clc1ccc2c(NCCNCc3cn(-c4ccnc5cc(Cl)ccc45)nn3)ccnc2c1
2. CN(CCNCc1cn(CCc2ccccc2)nn1)CCNc1ccnc2cc(Cl)ccc12
3. CN(CCNCc1cn(-c2nc3ccccc3[nH]2)nn1)CCNc1ccnc2cc(Cl)ccc12
4. CN(CCNCc1cn(Cc2ccc(Br)cc2)nn1)CCNc1ccnc2cc(Cl)ccc12

**Result**
[3.2, 3.2, 2.1, 5.7]

Batch lookup, Ratio IC50 per entry.
1. CN(CCNc1ccnc2cc(Cl)ccc12)Cc1cn(-c2ccnc3cc(Cl)ccc23)nn1
2. CN(CCNCc1cn(-c2ccc(Br)cc2)nn1)CCNc1ccnc2cc(Cl)ccc12
3. CN(CCNCc1cn(-c2ccccc2Cl)nn1)CCNc1ccnc2cc(Cl)ccc12
4. CN(CCNCc1cn(CCc2c[nH]c3ccccc23)nn1)CCNc1ccnc2cc(Cl)ccc12
5. CCN(CC)CCCC(C)Nc1ccnc2cc(Cl)ccc12 (stereo unspecified) [CHLOROQUINE]

**Result**
1: 2.7; 2: 5; 3: 4; 4: 6; 5: 1.2

**Query** Request - read-out Ratio IC50 | tested on BXPC-3 | molecule CN(CCNCc1cn(Cc2ccc(Cl)cc2)nn1)CCNc1ccnc2cc(Cl)ccc12
**Result** 7

====

# Species: Homo sapiens
# Measurement Protocol: Cmax in human at 1200 mg
# Format: ADME, organism-based
# Design: dose 1200 mg
# Test Parameters: in vivo
Assay Readout: Cmax (µM)
Numbers only, in µM.

**Query** // lookup Cmax for CCN(CCO)CCCC(C)Nc1ccnc2cc(Cl)ccc12 (stereo unspecified) [HYDROXYCHLOROQUINE]
**Result** 7

====

Provide the reported pIC50 of each item.
# Measurement Protocol: Antiproliferative activity against human HCC827 cells after 72 hrs by SRB method
# Type: functional, cell-based
# Test Parameters: HCC827, 72 h
Give bare numbers, as −log10 of the molar value.

1) CN(CCNCc1cn(CCc2ccccc2)nn1)CCNc1ccnc2cc(Cl)ccc12; 4.82
2) C#CCNCCN(C)CCNc1ccnc2cc(Cl)ccc12; 3.98
3) CN(CCNCc1cn(-c2ccc(F)cc2)nn1)CCNc1ccnc2cc(Cl)ccc12; 4.72
4) CN(CCNCc1cn(-c2ccccc2)nn1)CCNc1ccnc2cc(Cl)ccc12; 4.59
5) CN(CCNc1ccnc2cc(Cl)ccc12)Cc1cn(-c2ccnc3cc(Cl)ccc23)nn1; 4.74
6) CCN(CC)CCCC(C)Nc1ccnc2cc(Cl)ccc12 (stereo not given); 4.12

Batch lookup, pIC50 per entry.
1. CN(CCNCc1cn(-c2ccnc3cc(Cl)ccc23)nn1)CCNc1ccnc2cc(Cl)ccc12
2. CN(CCNCc1cn(CC(=O)Nc2cccc3ccc(O)cc23)nn1)CCNc1ccnc2cc(Cl)ccc12
3. Clc1ccc2c(NCCNCc3cn(-c4ccnc5cc(Cl)ccc45)nn3)ccnc2c1
4. CN(CCNCc1cn(-c2nc3ccccc3[nH]2)nn1)CCNc1ccnc2cc(Cl)ccc12
5. CN(CCNCc1cn(CCc2c[nH]c3ccccc23)nn1)CCNc1ccnc2cc(Cl)ccc12

**Result**
1. 4.74
2. 4.07
3. 4.80
4. 4.49
5. 5.07

Batch lookup, pIC50 per entry.
1. CN(CCNCc1cn(-c2cccc(Cl)c2)nn1)CCNc1ccnc2cc(Cl)ccc12
2. CN(CCNCc1cn(C(C)(C)C)nn1)CCNc1ccnc2cc(Cl)ccc12
3. CN(CCNCc1cn(-c2ccc(Cl)cc2)nn1)CCNc1ccnc2cc(Cl)ccc12
4. CCN(CCO)CCCC(C)Nc1ccnc2cc(Cl)ccc12 (stereo not given) [HYDROXYCHLOROQUINE]

**Result**
5.03
4.25
5.02
4.19

====

Provide the reported IC50 of each item.
# Measurement Protocol: Antiproliferative activity against human H460 cells after 72 hrs by SRB method
# Format: functional, cell-based
# Test Parameters: NCI-H460, 72 h
I'd appreciate it if you wrote the number followed by its unit.

1) CN(CCNCc1cn(CCc2c[nH]c3ccccc23)nn1)CCNc1ccnc2cc(Cl)ccc12; 12 µM
2) CCN(CCO)CCCC(C)Nc1ccnc2cc(Cl)ccc12 (stereo not given) [HYDROXYCHLOROQUINE]; 74 µM
3) CN(CCNCc1cn(Cc2nc3cc(Cl)ccc3[nH]2)nn1)CCNc1ccnc2cc(Cl)ccc12; 59 µM
4) CN(CCNCc1cn(-c2ccccc2Cl)nn1)CCNc1ccnc2cc(Cl)ccc12; 20 µM

Note: attention shifts to another entry.
**Query** // lookup IC50 for CN(CCNCc1cn(-c2nc3ccccc3[nH]2)nn1)CCNc1ccnc2cc(Cl)ccc12
**Result** 33 µM

====

Provide the reported IC50 of each item.
# Measurement Protocol: Antiproliferative activity against human HCC827 cells after 72 hrs by SRB method
# Type: functional, cell-based
# Test Parameters: HCC827, 72 h

Completed entries (count: 3):
1. CN(CCNCc1cn(CCCO)nn1)CCNc1ccnc2cc(Cl)ccc12; > 200 µM
2. CN(CCNCc1cn(CCC(=O)Nc2ccccn2)nn1)CCNc1ccnc2cc(Cl)ccc12; > 200 µM
3. CN(CCNCc1cn(CCCn2nn[nH]c2=O)nn1)CCNc1ccnc2cc(Cl)ccc12; > 200 µM

Batch lookup, IC50 per entry.
1. CN(CCNCc1cn(CCn2c(=O)[nH]c3ccccc3c2=O)nn1)CCNc1ccnc2cc(Cl)ccc12
2. CN(CCNCc1cn(CC(=O)O)nn1)CCNc1ccnc2cc(Cl)ccc12

**Result**
1. > 200 µM
2. > 200 µM
